Data provenance is ChEMBL document CHEMBL5316333.

assay: AUC (0 to 24) in female Beagle dog at 100 mg/kg, po QD and measured after 1 day by LC-MS/MS analysis; format: ADME, organism-based, Canis lupus familiaris; parameters: time 1 day, dose 100 mg/kg, route po; settings: in vivo
Measured metric: AUC at 24 h (ng·h/mL)

| Cpd smiles | Measured metric | Readout unit | Observed |
| --- | --- | --- | --- |
| C[C@@H]1CN(c2ccc3c(=O)n(-c4ccc(Cl)c5c(NS(C)(=O)=O)nn(C)c45)c([C@H](Cc4cc(F)cc(F)c4)NC(=O)Cn4nc(C(F)F)c5c4C(F)(F)[C@@H]4C[C@H]54)nc3c2)C[C@H](C)O1 | AUC at 24 h | ng·h/mL | 1360 |

###

test: Half life in Wistar Han rat plasma at 1 mg/kg,iv and measured upto 96 hrs by LC-MS/MS analysis; format: ADME, organism-based

| Cpd smiles | half-life [h] |
| --- | --- |
| C[C@@H]1CN(c2ccc3c(=O)n(-c4ccc(Cl)c5c(NS(C)(=O)=O)nn(C)c45)c([C@H](Cc4cc(F)cc(F)c4)NC(=O)Cn4nc(C(F)F)c5c4C(F)(F)[C@@H]4C[C@H]54)nc3c2)C[C@H](C)O1 | 3.2 |

###

test: Clearance in Sprague-Dawley rat at 1 mg/kg, iv and measured upto 96 hrs by LC-MS/MS analysis; type: ADME, organism-based; settings: in vivo
The entries below come with measured clearance values attached.

| Cpd smiles | clearance |
| --- | --- |
| COc1ccc2c(=O)n(-c3ccc(Cl)c4c(NS(C)(=O)=O)nn(C)c34)c([C@H](Cc3cc(F)cc(F)c3)NC(=O)Cn3nc(C(F)F)c4c3C(F)(F)[C@@H]3C[C@H]43)nc2c1F | 11 mL/min/kg |
| Cn1nc(NS(C)(=O)=O)c2c(Cl)ccc(-n3c([C@H](Cc4cc(F)cc(F)c4)NC(=O)Cn4nc(C(F)F)c5c4C(F)(F)[C@@H]4C[C@H]54)nc4cc(F)ccc4c3=O)c21 | 40 mL/min/kg |
| C[C@@H]1CN(c2ccc3c(=O)n(-c4ccc(Cl)c5c(NS(C)(=O)=O)nn(C)c45)c([C@H](Cc4cc(F)cc(F)c4)NC(=O)Cn4nc(C(F)F)c5c4C(F)(F)[C@@H]4C[C@H]54)nc3c2)C[C@H](C)O1 | 8.9 mL/min/kg |

###

tested on: Human immunodeficiency virus 1; experiment: Antiviral activity against HIV-1 NLRep-Rluc infected in human MT2 cells assessed as inhibition of viral growth incubated for 96 hrs by renilla luciferase assay; assay type: functional, organism-based; conditions: Human immunodeficiency virus 1, NLRep-Rluc, MT2, 96 h

| Cpd smiles | EC50, nM |
| --- | --- |
| Cn1nc(NS(C)(=O)=O)c2c(Cl)ccc(-n3c([C@H](Cc4cc(F)cc(F)c4)NC(=O)Cn4nc(C(F)F)c5c4C(F)(F)[C@@H]4C[C@H]54)nc4cc(C(C)(F)F)ccc4c3=O)c21 | 0.078 |
| COc1ccc2c(=O)n(-c3ccc(Cl)c4c(NS(C)(=O)=O)nn(C)c34)c([C@H](Cc3cc(F)cc(F)c3)NC(=O)Cn3nc(C(F)F)c4c3C(F)(F)[C@@H]3C[C@H]43)nc2c1F | 0.13 |
| COc1cc(OC)c2c(=O)n(-c3ccc(Cl)c4c(NS(C)(=O)=O)nn(C)c34)c([C@H](Cc3cc(F)cc(F)c3)NC(=O)Cn3nc(C(F)F)c4c3C(F)(F)[C@@H]3C[C@H]43)nc2c1 | 0.064 |
| Cn1nc(NS(C)(=O)=O)c2c(Cl)ccc(-n3c([C@H](Cc4cc(F)cc(F)c4)NC(=O)Cn4nc(C(F)F)c5c4C(F)(F)[C@@H]4C[C@H]54)nc4cc(C(C)(C)O)ccc4c3=O)c21 | 0.15 |
| Cn1nc(NS(C)(=O)=O)c2c(Cl)ccc(-n3c([C@H](Cc4cc(F)cc(F)c4)NC(=O)Cn4nc(C(F)F)c5c4C(F)(F)[C@@H]4C[C@H]54)nc4cc(N5CCOCC5=O)ccc4c3=O)c21 | 0.11 |
| C[C@@H]1CN(c2ccc3c(=O)n(-c4ccc(Cl)c5c(NS(C)(=O)=O)nn(C)c45)c([C@H](Cc4cc(F)cc(F)c4)NC(=O)Cn4nc(C(F)F)c5c4C(F)(F)[C@@H]4C[C@H]54)nc3c2)C[C@H](C)O1 | 0.039 |

###

experiment: Half life in Wistar Han rat plasma at 20 mg/kg, IM and measured after 21 days by LC-MS/MS analysis; type: ADME, organism-based; details: time 21 day

| Cpd smiles | half-life |
| --- | --- |
| C[C@@H]1CN(c2ccc3c(=O)n(-c4ccc(Cl)c5c(NS(C)(=O)=O)nn(C)c45)c([C@H](Cc4cc(F)cc(F)c4)NC(=O)Cn4nc(C(F)F)c5c4C(F)(F)[C@@H]4C[C@H]54)nc3c2)C[C@H](C)O1 | 39 h |

###

system: Human immunodeficiency virus 1; experiment: Antiviral activity against HIV-1 NLRep-Rluc infected in human MT2 cells assessed as inhibition of viral growth incubated for 96 hrs by renilla luciferase assay; format: functional, organism-based; conditions: Human immunodeficiency virus 1, NLRep-Rluc, MT2, 96 h
Consider the cut-off 0.06 nM. If the recorded EC50 is strictly smaller, the label is yes; if not, the label is no.

| Cpd smiles | Answer label |
| --- | --- |
| Cn1nc(NS(C)(=O)=O)c2c(Cl)ccc(-n3c([C@H](Cc4cc(F)cc(F)c4)NC(=O)Cn4nc(C(F)F)c5c4C(F)(F)[C@@H]4C[C@H]54)nc4cc(N5CCCC5)ccc4c3=O)c21 | no |
| Cn1nc(NS(C)(=O)=O)c2c(Cl)ccc(-n3c([C@H](Cc4cc(F)cc(F)c4)NC(=O)Cn4nc(C(F)F)c5c4C(F)(F)[C@@H]4C[C@H]54)nc4cc(C#N)ccc4c3=O)c21 | yes |
| Cn1nc(NS(C)(=O)=O)c2c(Cl)ccc(-n3c([C@H](Cc4cc(F)cc(F)c4)NC(=O)Cn4nc(C(F)F)c5c4C(F)(F)[C@@H]4C[C@H]54)nc4cc(N5CCS(=O)(=O)CC5)ccc4c3=O)c21 | no |
| Cn1nc(NS(C)(=O)=O)c2c(Cl)ccc(-n3c([C@H](Cc4cc(F)cc(F)c4)NC(=O)Cn4nc(C(F)F)c5c4C(F)(F)[C@@H]4C[C@H]54)nc4cc(N5CCO[C@@H](C(F)(F)F)C5)ccc4c3=O)c21 | no |
| Cn1nc(NS(C)(=O)=O)c2c(Cl)ccc(-n3c([C@H](Cc4cc(F)cc(F)c4)NC(=O)Cn4nc(C(F)F)c5c4C(F)(F)[C@@H]4C[C@H]54)nc4cc(C(C)(C)C)ccc4c3=O)c21 | no |
| COc1cccc2c(=O)n(-c3ccc(Cl)c4c(NS(C)(=O)=O)nn(C)c34)c([C@H](Cc3cc(F)cc(F)c3)NC(=O)Cn3nc(C(F)F)c4c3C(F)(F)[C@@H]3C[C@H]43)nc12 | no |
| Cn1nc(NS(C)(=O)=O)c2c(Cl)ccc(-n3c([C@H](Cc4cc(F)cc(F)c4)NC(=O)Cn4nc(C(F)F)c5c4C(F)(F)[C@@H]4C[C@H]54)nc4cc(C5CC5)ccc4c3=O)c21 | no |
| Cn1nc(NS(C)(=O)=O)c2c(Cl)ccc(-n3c([C@H](Cc4cc(F)cc(F)c4)NC(=O)Cn4nc(C(F)F)c5c4C(F)(F)[C@@H]4C[C@H]54)nc4cc(N5CCCOCC5)ccc4c3=O)c21 | no |
| Cn1nc(NS(C)(=O)=O)c2c(Cl)ccc(-n3c([C@H](Cc4cc(F)cc(F)c4)NC(=O)Cn4nc(C(F)F)c5c4C(F)(F)[C@@H]4C[C@H]54)nc4ccc(F)cc4c3=O)c21 | yes |
| Cn1nc(NS(C)(=O)=O)c2c(Cl)ccc(-n3c([C@H](Cc4cc(F)cc(F)c4)NC(=O)Cn4nc(C(F)F)c5c4C(F)(F)[C@@H]4C[C@H]54)nc4cc(N5[C@@H]6CC[C@H]5COC6)ccc4c3=O)c21 | yes |
| Cn1nc(NS(C)(=O)=O)c2c(Cl)ccc(-n3c([C@H](Cc4cc(F)cc(F)c4)NC(=O)Cn4nc(C(F)F)c5c4C(F)(F)[C@@H]4C[C@H]54)nc4cc(N5C[C@H]6CC[C@@H](C5)O6)ccc4c3=O)c21 | no |
| Cn1nc(NS(C)(=O)=O)c2c(Cl)ccc(-n3c([C@H](Cc4cc(F)cc(F)c4)NC(=O)Cn4nc(C(F)F)c5c4C(F)(F)[C@@H]4C[C@H]54)nc4cc(N5CC6(COC6)C5)ccc4c3=O)c21 | no |
| CO[C@@H]1CCN(c2ccc3c(=O)n(-c4ccc(Cl)c5c(NS(C)(=O)=O)nn(C)c45)c([C@H](Cc4cc(F)cc(F)c4)NC(=O)Cn4nc(C(F)F)c5c4C(F)(F)[C@@H]4C[C@H]54)nc3c2)C1 | yes |
| Cn1nc(NS(C)(=O)=O)c2c(Cl)ccc(-n3c([C@H](Cc4cc(F)cc(F)c4)NC(=O)Cn4nc(C(F)F)c5c4C(F)(F)[C@@H]4C[C@H]54)nc4cc(Cl)ccc4c3=O)c21 | yes |
| Cn1nc(NS(C)(=O)=O)c2c(Cl)ccc(-n3c([C@H](Cc4cc(F)cc(F)c4)NC(=O)Cn4nc(C(F)F)c5c4C(F)(F)[C@@H]4C[C@H]54)nc4cc(S(C)(=O)=O)ccc4c3=O)c21 | no |
| Cn1nc(NS(C)(=O)=O)c2c(Cl)ccc(-n3c([C@H](Cc4cc(F)cc(F)c4)NC(=O)Cn4nc(C(F)F)c5c4C(F)(F)[C@@H]4C[C@H]54)nc4cc(N5CCCCC5)ccc4c3=O)c21 | no |
| Cn1nc(NS(C)(=O)=O)c2c(Cl)ccc(-n3c([C@H](Cc4cc(F)cc(F)c4)NC(=O)Cn4nc(C(F)F)c5c4C(F)(F)[C@@H]4C[C@H]54)nc4cc(N5CCOCC5)ccc4c3=O)c21 | yes |
| Cn1nc(NS(C)(=O)=O)c2c(Cl)ccc(-n3c([C@H](Cc4cc(F)cc(F)c4)NC(=O)Cn4nc(C(F)F)c5c4C(F)(F)[C@@H]4C[C@H]54)nc4cc(N5C6COCC5COC6)ccc4c3=O)c21 | no |
| CN1CCN(c2ccc3c(=O)n(-c4ccc(Cl)c5c(NS(C)(=O)=O)nn(C)c45)c([C@H](Cc4cc(F)cc(F)c4)NC(=O)Cn4nc(C(F)F)c5c4C(F)(F)[C@@H]4C[C@H]54)nc3c2)CC1 | no |
